B1: TPR t1 (parent)
chain: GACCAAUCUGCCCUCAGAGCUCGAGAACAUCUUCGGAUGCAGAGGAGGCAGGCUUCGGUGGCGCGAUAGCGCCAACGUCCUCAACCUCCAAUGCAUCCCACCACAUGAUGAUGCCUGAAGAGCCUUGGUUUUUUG

variants of: B1; assay: polymerase ribozyme fitness, log enrichment relative to wild type (log ratio); higher = more active; in vitro selection for triplet polymerase activity
metricName: polymerase ribozyme fitness (log ratio)

# annotated cases, reported polymerase ribozyme fitness (log ratio) shown
GACCAAUCUGCCCUCAAAGCUCGAGAACAUCUUCGGAUGCAGAGGAGGCAGGCUUCGGUGGCGCGAUAGCGCCAACGUCCUCAACCUCCAAUGCAUCCCACCACAUGAUGAUGCCCGAAGAGCCUUGGUUUUUUG [G17A U116C]: -3.7
GACCAAUCUUCCCUCAGAGGUCGAGAACAUCUUCGGAUGCAGAGGAGGCAGGCUUCGGUGGCGCGAUAGCGCCAACGUCCUCAACCUCCAAUGCAUCCUACCACAUGAUGAUGCUUGAAGAGCCUUGGUUUUUUG [G10U C20G C99U C115U]: -8.2
GACCAAUCUGCCCUCAGAGCUCGAGAACAUCUUCGGAUGCAGAGGAGGCAGGAUUCGGUGGCGCGAUAGCGCCAACGUCCUCAACCUCCAAUGCAUCCCACCACAUGAUGAUGCCUGAAUACCCAUGGUUUUUUG [C53A G120U G122C U125A]: -0.563
GACCAAUCUGCCCUCAGUGCUCGAGAACAUCUUCGGAUGCAGAGGUGGCAGGCUUCGGUGGCGCGAUAGCGCCAACGUCCUCAACCUCCAAUGCAUUCCACCUCAUGAUGAUGCCUGAAUAGGCUUGGUUUUUUG [A18U A46U C97U A103U G120U C123G]: -6.88

get_value(item= GACCAAUCUGCCCUCAGAGCUCGAGAACAUCUUCGGAUGCAGAGGAGGCAGGCUUCGGUGGCGCGAUAGCGGCAACGUCCUCAACCUCCAAUGCAUCCCACCACAUGAAGAUGCCUGAAGAGACUUGGUUUUUUG [C72G U109A C123A] , readout=polymerase ribozyme fitness (log ratio)) returns -5.46

get_value(item= GACCAAUCUGCCCGCAGAGCUCGAGAACAUCUUCGGAUGCAGAGGAGGCAGGCUUCGGUGGCGCGAUAGCGCCAACGUCCUCAACCUCCAUUGCAUCCCACCACAUGAUGAUGCCUGAAGAGCCUUGGUUUUUUG [U14G A91U] , readout=polymerase ribozyme fitness (log ratio)) returns -3.73

get_value(item= GACCAAUCGCCCCUCAGAGCUCGAGAACAUCUUCGGAUGCAGAGGAGGCAGGCUUCGGUGGCGCGAUAGCGCCAACGUCCUCAACCUCCAAUGGAUCCCACCACAUGAUGAUGCCUGAAGCGCGUUGGUUUUUUG [U9G G10C C94G A121C C124G] , readout=polymerase ribozyme fitness (log ratio)) returns 1.48

get_value(item= GACCAAUCUGCCCUCACAGCUCGAGAACAUCUUCGGAGGCAGAGGAGGCAGGCUUCGGUGGCGCGAUAGGGCCAACGUCCUCAACCUCCAAUGCCUCCAACCAUGUGAUCAUGCCUGAAGAGCCUUGGUUUUUUG [G17C U38G C70G A95C C99A C104U A105G G110C] , readout=polymerase ribozyme fitness (log ratio)) returns -6.76

get_value(item= GACCAAUCUCCCCUCAGAGCUCGAGAACAUCUUCGGAUGCAGAGGAGGCAGGCUUCGGUGGCGCGAUAGCGCCAACGUCCUCAACCUCCAAUGCAUCCCACCUCAUGAUGAUGCCUGAAGAGUCUUGGUUUUUUG [G10C A103U C123U] , readout=polymerase ribozyme fitness (log ratio)) returns -5.06

get_value(item= GACCAAUCCGCCCUCAGAGCUCGAGAACAUCUUCGGAUGCAGAGGAGGCAGGGUUCGGUGGCGCGAUAGCGCCAACGUCCUCAACCUCCAAUGCAUCCCACCACAUGAUGAUGUCAGAAGAGACUUGGUCUUUUG [U9C C53G C114U U116A C123A U130C] , readout=polymerase ribozyme fitness (log ratio)) returns -7.66

get_value(item= GACCAAUCUGCCCUCAGAGCUCGAGAACAUCUUCGGAUGCAGAGGAGGCAGGCUUCGGUGGCGCGAUAGCUCCAACGUCCUCAACCUCCAAUGCAUCCCACCACAUGAUGAUGCCUGAAGAGCCUUGUUUUUUUG [G71U G128U] , readout=polymerase ribozyme fitness (log ratio)) returns -2.61

get_value(item= GACCAUUCUGCCCUCAGAGCUCGAGAUCAUCUUCGGAUGCAGAGGCGACAGGGUUCGGUGGCGCGAUAGCGCCAACGUGCUGAACCUCCAAUGCAUCCCACCACAUGAUCAUGCCUGAAGAGCCUUGGUUUUUUG [A6U A27U A46C G48A C53G C79G C82G G110C] , readout=polymerase ribozyme fitness (log ratio)) returns -6.9

get_value(item= GACCAAUCUGCCCUCAGCGCUCGAGAACAUCUUCGGAUGCAGAGGAGGCAGGCUUCGGUGGCGCGAUAACGCCAACGUCCUCAACCUCCAAUGCAUCCCACCACAUGAUGAUGCCUGAAGAGCCUUGGUUUUUUG [A18C G69A] , readout=polymerase ribozyme fitness (log ratio)) returns -6.17

get_value(item= GACCGAUCUGCACUCAGAGCUCGAGAACAUCUUCGGAUGCAGAGGAGGCAGGCUUCGGCGGCGCGAUAGCGCCAACGUCCUCAACCUCCAAUGCAUCCCACCACAUGAUGAUGCCUGAAGAGCCUUGGUUUUUUG [A5G C12A U59C] , readout=polymerase ribozyme fitness (log ratio)) returns 0.0118

get_value(item= GACCAAUCUGCUGUCAGAGAUCGAGAACAUCUUCGGGUGCAGAGGUGGCAGGCUUCGGUGGCGCGAUAGCGCCAACAUCCUCAACCUCCAAUGCAUCCCACCACAUGAUGAUGCCUGAAAAGCCUUGGUUUUUUG [C12U C13G C20A A37G A46U G77A G120A] , readout=polymerase ribozyme fitness (log ratio)) returns -2.45

get_value(item= GACCAAUCUGCCCUCAGAGCUCGAGAACAUCUUCGGAUGCAGAGGGGGCAGGCUUCGGUGGCGCGAUAGCGCCAACGUCCUCAACCUCCAAUGCAUCUCACCACAUGAUGAUGCCUCAAGAGCCUUGGUUUUUUG [A46G C98U G117C] , readout=polymerase ribozyme fitness (log ratio)) returns -5.69
